Experiment: Half life at pH 5
Type: ADME
Conditions: buffer
ENDPOINT_LABEL: half-life

COMPOUND	ENDPOINT_LABEL	VALUE_OBSERVED
CC(=O)O[C@H]1C(=O)[C@@]2(C)[C@H]([C@H](OC(=O)c3ccccc3)[C@]3(O)C[C@H](OC(=O)[C@H](OC(=O)COCC(=O)NCCOCCOCCOCCNC(=O)CCC(NC(=O)c4ccc(NCc5cnc6nc(N)[nH]c(=O)c6n5)cc4)C(=O)O)[C@@H](NC(=O)c4ccccc4)c4ccccc4)C(C)=C1C3(C)C)[C@]1(OC(C)=O)CO[C@@H]1C[C@@H]2O (stereo partly specified)	half-life	> 12.5 days
